test system: Brain; experiment: Biodistribution in Sprague-Dawley rat brain at 1.48 to 2.22 MBq, iv measured at 60 mins by gamma counting analysis; format: ADME, organism-based; conditions: in vivo, 1 h
Measured quantity: Drug uptake (% ID/g)
Number in % ID/g, nothing else.

Please review the following examples before continuing.
Cn1cc(-c2ccncc2)c(-c2ccc(OCc3cc(OCC[18F])c4ccccc4n3)cc2)n1	0.101
Cn1cc(-c2ccncc2)c(-c2ccc(OCc3nc4ccccc4cc3OCC[18F])cc2)n1	0.149
Cn1cc(-c2ccncc2)c(-c2ccc(OCc3cc(CCC[18F])c4ccccc4n3)cc2)n1	0.026
Cn1cc(-c2ccncc2)c(-c2ccc(OCc3cc(C[18F])c4ccccc4n3)cc2)n1	0.069
Cn1cc(-c2ccncc2)c(-c2ccc(OCc3cc(COCC[18F])c4ccccc4n3)cc2)n1	0.343

GET /values?readout=Drug uptake&item= Cn1cc(-c2ccncc2)c(-c2ccc(OCc3cc(OCCOCCOCC[18F])c4ccccc4n3)cc2)n1 0.421

Given the entry Cn1cc(-c2ccncc2)c(-c2ccc(OCc3cc([18F])c4ccccc4n3)cc2)n1 , report its measured Drug uptake. 0.125
